tested on: human IgG antibodies in human serum samples; assay: EIA of human antibody reactivities to overlapping synthetic peptides of TTV ORF1 and ORF2 (Tables 2 and 3); assay type: binding; conditions: human serum sample 4, negative for TTV DNA by PCR; serum diluted 1:100; OD over 0.500 considered positive
The threshold is inclusive: optical density (OD) at 405 nm of exactly 0.1 OD counts as t; values below receive f.

{"substance": "QKESLLFPPVKLLRRVP (Peptide Immunogen) [compound 69, overlapping synthetic peptide of TTV ORF1]", "target": "human IgG antibodies in human serum samples", "labelClass": "t"}

Decide: optical density (OD) at 405 nm of peptide 1: overlapping synthetic peptide of TTV ORF1 (TATTTTYAYPGTNRPPV) >= 0.1 OD?
f

Decide: optical density (OD) at 405 nm of 22: overlapping synthetic peptide of TTV ORF1 (TATTTTYAYPGTNR) [compound 22] >= 0.1 OD?
f

Decide: optical density (OD) at 405 nm of TATTTTYAYPGTNRPPV (Peptide Immunogen) [peptide 35, overlapping synthetic peptide of TTV ORF1] >= 0.1 OD?
t

Decide: optical density (OD) at 405 nm of 21: overlapping synthetic peptide of TTV ORF1 (TATTTTYAYPGTNRP) [compound 21] >= 0.1 OD?
f

Decide: optical density (OD) at 405 nm of 2: overlapping synthetic peptide of TTV ORF1 (YAYPGTNRPPV) [compound 2] >= 0.1 OD?
t

Decide: optical density (OD) at 405 nm of KINTMPPFLDTELTAPS (Peptide Immunogen) [compound 18, overlapping synthetic peptide of TTV ORF1] >= 0.1 OD?
t

====

test system: human IgG antibodies in human serum samples; experiment: EIA of human antibody reactivities to overlapping synthetic peptides of TTV ORF1 and ORF2 (Tables 2 and 3); assay type: binding; settings: human serum sample 157, positive for TTV DNA by PCR; serum diluted 1:100; OD over 0.500 considered positive
observationType: optical density (OD) at 405 nm
Report as a plain number; the unit OD is understood.

Field: example entries. Status: answers known.
{"substance": "KINTMPPFLDTELTAPS (Peptide Immunogen) [compound 18, overlapping synthetic peptide of TTV ORF1]", "optical density (OD) at 405 nm": 0.18}
{"substance": "DQNIHMNARLLIRSPFT (Peptide Immunogen) [compound 50, overlapping synthetic peptide of TTV ORF1]", "optical density (OD) at 405 nm": 0.46}
{"substance": "21: overlapping synthetic peptide of TTV ORF1 (TATTTTYAYPGTNRP) [compound 21]", "optical density (OD) at 405 nm": 0.00}

Let us examine a further case.
Entry LIRSPFTDPQLLVHTDP (Peptide Immunogen) [compound 51, overlapping synthetic peptide of TTV ORF1] under human IgG antibodies in human serum samples had optical density (OD) at 405 nm of 0.78

====

optical density (OD) at 405 nm, EIA reactivity of human serum sample 157 values by entry
system: human IgG antibodies in human serum samples; experiment: EIA of human antibody reactivities to overlapping synthetic peptides of TTV ORF1 and ORF2 (Tables 2 and 3); type: binding; conditions: serum sample 157, positive for TTV DNA by PCR; serum 1:100; peptide coated 10 μg/ml; OD over 0.500 positive
Report as a plain number; the unit OD is understood.

# optical density (OD) at 405 nm, EIA reactivity of human serum sample 157 (substance: KINTMPPFLDTELTAPS (Peptide Immunogen) [compound 18, overlapping synthetic peptide of TTV ORF1] ) is 0.00

# optical density (OD) at 405 nm, EIA reactivity of human serum sample 157 (substance: 2: overlapping synthetic peptide of TTV ORF1 (YAYPGTNRPPV) [compound 2] ) is 0.13

# optical density (OD) at 405 nm, EIA reactivity of human serum sample 157 (substance: 20: overlapping synthetic peptide of TTV ORF1 (TATTTTYAYPGTNRPP) [compound 20] ) is 0.16

# optical density (OD) at 405 nm, EIA reactivity of human serum sample 157 (substance: peptide 1: overlapping synthetic peptide of TTV ORF1 (TATTTTYAYPGTNRPPV) ) is 0.14

# optical density (OD) at 405 nm, EIA reactivity of human serum sample 157 (substance: VLICGENTVSRNYATHS (Peptide Immunogen) [compound 10, overlapping synthetic peptide of TTV ORF1] ) is 0.13
